Task for the reader: assign each of the following compounds its reported inhibition.
ASSAYED_TARGET: Hepatocyte nuclear factor 4-alpha (Homo sapiens) (UniProt P41235)
Sequence (P41235 whole entry, looked up, the tested form may be a part): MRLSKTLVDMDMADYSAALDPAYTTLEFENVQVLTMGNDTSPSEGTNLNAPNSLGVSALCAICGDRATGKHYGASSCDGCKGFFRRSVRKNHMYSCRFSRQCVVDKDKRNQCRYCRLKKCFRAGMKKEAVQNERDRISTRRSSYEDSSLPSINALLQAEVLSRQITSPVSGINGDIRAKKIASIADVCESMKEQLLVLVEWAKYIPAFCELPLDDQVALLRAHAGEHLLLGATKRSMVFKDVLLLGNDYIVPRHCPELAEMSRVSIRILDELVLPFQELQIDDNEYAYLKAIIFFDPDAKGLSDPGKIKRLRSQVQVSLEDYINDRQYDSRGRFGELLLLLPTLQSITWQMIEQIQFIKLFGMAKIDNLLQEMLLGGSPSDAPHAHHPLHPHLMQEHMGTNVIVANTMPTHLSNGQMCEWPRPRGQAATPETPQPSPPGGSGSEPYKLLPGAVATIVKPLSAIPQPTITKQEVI
ASSAY_DETAILS: blockers of HNF4 self-association – biochemical, split-luciferase complementation, luminescence, counter-screen for ABHD5-PLIN5 interaction inhibitor project (AID 651674);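 further: light from luciferase halves that rejoin when HNF4 fusion proteins dimerize; 0% = DMSO only wells and the 100% control is not given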
RECORDED_CONDITIONS: HNF4 dimerization, at 4 µM, hits give high values
Out of some 2,200 compounds screened, about 1,700 (77%) were called active. The set was probably picked from earlier hits. Not all results are given here.
Record the value in %, omitting the unit from your answer.

Prompt: Fill blank: measured inhibition of the compound O=C(Nc1ccccc1)c1nnsc1S(=O)(=O)c1ccc(Cl)cc1 is ____.
Response: 100

Prompt: Same question, O=C(CCN1CCc2ccccc2C(O)(c2ccccc2)C1)c1ccc2c(c1)OCCO2 (configuration not stated) this time
Response: 100

Prompt: Field entry: O=[N+]([O-])/C=C/c1ccc2c(ccn2Cc2ccccc2)c1
Response: 108

Prompt: Would you mind doing O=C(/C=C(O)/C=C/c1ccc(O)cc1)/C=C/c1ccc(O)cc1 as well?
Response: 74.4

Prompt: What would you report for Cc1ccc(Cc2c(-c3ccco3)nc3ccc(Cl)cn23)cc1 ?
Response: 47.3

Prompt: Now this one: CC(C)(C)C1C/C(=C/c2ccco2)C(=O)/C(=C/c2ccco2)C1 (configuration not stated)
Response: 78.9

Prompt: Please do the same for COC(=O)c1cnn2c(C(F)(F)F)cc(-c3ccco3)nc12 as well.
Response: 9.71

Prompt: Quick one: CC1Cc2ccccc2N1CC(=O)Nc1ccc(S(N)(=O)=O)cc1 (configuration not stated)
Response: -0.75

Prompt: Another: O=C(Nc1ccccc1Cl)/C(Cl)=C(\Cl)S(=O)c1ccccc1 (configuration not stated)
Response: 108

Prompt: And what about the compound COc1ccccc1-n1nnnc1S(=O)(=O)Cc1ccc(Cl)cc1 ?
Response: 32.1

Prompt: How about O=C(Cn1nc(CNc2ccc(Cl)cc2)[n+]2c1CCCCC2)c1ccc(Cl)cc1 ?
Response: 6.95

Prompt: Now consider O=[N+]([O-])c1c(NCCO)cc(Sc2nc3ccccc3s2)c2nonc12 and answer again.
Response: 115

Prompt: And what about the compound Cc1ccc(NC(=O)Cn2sc3ccccc3c2=O)cc1 ?
Response: 118

Prompt: Query Cc1cccc(C)c1NC(=O)C(c1ccc(C(F)(F)F)cc1)n1c(=O)c(-c2ccco2)nc2ccccc21 (configuration not stated) next
Response: 15.7

Prompt: Now the same for Cc1ccc(-n2nc(-c3ccco3)cc2C(=O)NCc2cccnc2)cc1
Response: 79.1

Prompt: Follow-up entry: O=C(NNc1c2ccccc2nc2ccccc12)c1cc2ccccc2cc1O
Response: 23.8

Prompt: Can you handle COc1ccccc1C1/C(=C(/O)c2ccc(C)cc2)C(=O)C(=O)N1Cc1ccco1 (configuration not stated) next?
Response: 10.7

Prompt: Cool, now O=C(NC1CCCCC1)C(c1cc2ccccc2o1)n1c(=O)c(-c2ccco2)nc2ccccc21 (configuration not stated)
Response: 12.5

Prompt: Again, but for CCOC(=O)C(=Cc1ccccc1OC)C(=O)OCC
Response: 51.8

Prompt: Now consider N#Cc1ccc(C(C(=O)NCc2ccccc2)n2c(=O)c(-c3ccco3)nc3ccccc32)cc1 (configuration not stated) and answer again.
Response: 46.7

Prompt: Would you kindly repeat that for CN(C)CCCNC(=O)/C=C/c1ccc(OCc2c(F)cccc2Cl)cc1 ?
Response: 6.86

Prompt: Now try Cc1cccc(CS(=O)(=O)c2ncc(Cl)c(C(=O)Nc3ccc(F)cc3)n2)c1 .
Response: 86.8
